target: human blood platelet PDE5 (Homo sapiens); construct: obtained by suitably treating various tissues and separating the enzyme with FPLC; from tissue; host or cells: human blood platelets; test: PDE5 enzyme inhibition activity test (scintillation proximity); type: biochemical; conditions: PDE5 table
MEASUREMENT_KIND: IC50
Please format your answer as a value with the unit trailing.

Check out these entries, answers already filled in.
{"COMPOUND": "CCCOc1ccc(NC(=O)NCCN(CC)CC)cc1-c1nc(CC)c(CC)c(=O)[nH]1.O=C(O)/C=C\\C(=O)O [Example 204, maleate]", "IC50": "0.88 nM"}
{"COMPOUND": "CCCOc1ccc(NC(=O)CCCNC(C)=O)cc1-c1nc(CC)c(CC)c(=O)[nH]1", "IC50": "0.92 nM"}

input: Checklist item: IC50 tested on human blood platelet PDE5 (Homo sapiens), entry CCCOc1ccc(NC(=O)C2CCCCC2)cc1-c1nc(CC)c(CC)c(=O)[nH]1 , value?
output: 0.92 nM
